# Assay info: growth inhibition of DIPG glioma cells, dose response, cell-based, SU-DIPG-XVII, MIPE5.0, CellTiter-Glo, qHTS (AID 1347060);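 for AC50: cells exposed to compound for 48 hours before viability readout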
# Study conditions: SU-DIPG-XVII viability, CellTiter-Glo ATP luminescence
Results filed as inconclusive are left out. The source made the active and inactive calls. No cut-off is given here; in the data, nearly all actives have AC50 up to about 26 µM.
Labels: 1 for active, 0 for inactive

Compound: C[C@@H](NCCCc1cccc(C(F)(F)F)c1)c1cccc2ccccc12
Class label: 1

Compound: CC(C)(O)CC[C@@H](O)[C@](C)(O)[C@H]1CC[C@@]2(O)C3=CC(=O)[C@@H]4C[C@@H](O)[C@@H](O)C[C@]4(C)[C@H]3CC[C@]12C
Class label: 0

Compound: COC(=O)[C@@H]1CC2=CC(=O)CC[C@]2(C)[C@@]23O[C@@H]2C[C@@]2(C)[C@@H](CC[C@@]24CCC(=O)O4)[C@H]13
Class label: 0

Compound: CC(=O)OCC(=O)[C@@]12N=C(C)O[C@@H]1C[C@H]1[C@@H]3CCC4=CC(=O)C=C[C@]4(C)[C@H]3[C@@H](O)C[C@@]12C
Class label: 0

Compound: CCS(=O)(=O)Nc1ccc2[nH]c(O)c(C(=Nc3ccc(CN4CCCCC4)cc3)c3ccccc3)c2c1
Class label: 1

Compound: COCCCOc1ccnc(CS(=O)c2nc3ccccc3[nH]2)c1C (stereo not drawn)
Class label: 0

Compound: CC(C(=O)O)c1cccc(C(=O)c2ccccc2)c1 (stereo not drawn)
Class label: 0

Compound: O=C1C[C@@H](c2ccc(O)cc2)Oc2cc(O)cc(O)c21
Class label: 0

====

# Assay info: HCT116 colon cancer cell growth inhibition, primary screen, CellTiter-Glo luminescence, NPC library (AID 1117342)
# Study conditions: at 20 µM (top of the series)
Active and inactive are the calls of the source.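 The calls were made as follows: active = compounds that lower survival of HCT116 colon cancer cells in the luminescence readout, no numeric limit stated; inactive = the rest.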
Consider the following compounds and their measured inhibition of viability readings.

Compound: Cc1c(C(=O)NN2CCCCC2)nn(-c2ccc(Cl)cc2Cl)c1-c1ccc(Cl)cc1
inhibition of viability: 108% (active)
--
Compound: O=C(O)COCCN1CCN(C(c2ccccc2)c2ccc(Cl)cc2)CC1 (centres undefined)
inhibition of viability: 11.2% (inactive)
--
Compound: O=C(OCCOCCO)c1ccccc1Nc1cccc(C(F)(F)F)c1
inhibition of viability: 81.8% (active)
--
Compound: O=C1NCN(c2ccccc2)C12CCN(CCCC(c1ccc(F)cc1)c1ccc(F)cc1)CC2
inhibition of viability: 99.6% (active)
--
Compound: O=C1OC2(c3ccc(O)cc3Oc3cc(O)ccc32)c2ccccc21
inhibition of viability: 9.8% (inactive)
--
Compound: CCN(CC)C(=O)c1cccnc1
inhibition of viability: 14.5% (inactive)
--
Compound: CN(c1nccc(=O)[nH]1)C1CCN(c2nc3ccccc3n2Cc2ccc(F)cc2)CC1
inhibition of viability: 26.2% (inactive)
--
Compound: O=C(O)C1CCC1
inhibition of viability: 13.6% (inactive)
--
Compound: O=C(CCCl)NCc1ccccc1
inhibition of viability: 5% (inactive)
--
Compound: CC1(C)CCC(C)(C)c2cc(NC(=O)c3ccc(C(=O)O)cc3)ccc21
inhibition of viability: 69.7% (active)
--
Compound: CC(C)Cn1cnc2c(N)nc3ccccc3c21
inhibition of viability: -6.6% (inactive)
--
Compound: O=C(O)c1cc(-c2ccccc2)nc2ccccc12
inhibition of viability: -8.1% (inactive)
--
Compound: CCCNC(C)(C)COC(=O)c1ccccc1
inhibition of viability: -3.5% (inactive)
--
Compound: Cc1c(N)c(=O)n(-c2ccccc2)n1C
inhibition of viability: -5.1% (inactive)
--
Compound: CCCCCCC[N+](CC)(CC)CCCCc1ccc(Cl)cc1
inhibition of viability: 79.1% (active)
--
Compound: Nc1cccc2c1CN(C1CCC(=O)NC1=O)C2=O (centres undefined)
inhibition of viability: -8.6% (inactive)
--
Compound: CN1[C@@H]2CC(OC(=O)[C@H](CO)c3ccccc3)C[C@H]1[C@@H]1O[C@@H]12 (some centres undefined)
inhibition of viability: -0.5% (inactive)
--
Compound: COc1ccc(Cc2cnc(N)nc2N)cc1OC
inhibition of viability: -12.4% (inactive)
--
Compound: O=C(NOCC1CC1)c1ccc(F)c(F)c1Nc1ccc(I)cc1Cl
inhibition of viability: 87.4% (active)
--
Compound: CN(C)C(=N)N=C(N)N
inhibition of viability: -25.7% (inactive)
--
Compound: Cc1nnc(C(=O)NC(C)(C)c2nc(C(=O)NCc3ccc(F)cc3)c(O)c(=O)n2C)o1
inhibition of viability: 1% (inactive)
--
Compound: O=C(O)[C@H](O)[C@@H](O)[C@H](O[C@@H]1O[C@H](CO)[C@H](O)[C@H](O)[C@H]1O)[C@H](O)CO
inhibition of viability: 93% (active)
--
Compound: CCOC(=O)[C@@](C)(N)Cc1ccc(O)c(O)c1
inhibition of viability: 20% (inactive)
--
Compound: CC(C)OC(=O)OCOP(=O)(CO[C@H](C)Cn1cnc2c(N)ncnc21)OCOC(=O)OC(C)C
inhibition of viability: 32.1% (inactive)
